biological target: human A3 receptor (Homo sapiens, UniProt P0DMS8); construct: expressed in transfected cells; host or cells: CHO; assay: functional cAMP (HTRF) assay, recombinant CHO cells expressing human A3 receptor, forskolin, agonist IB-MECA; format: cell-based
Sequence (P0DMS8 whole entry): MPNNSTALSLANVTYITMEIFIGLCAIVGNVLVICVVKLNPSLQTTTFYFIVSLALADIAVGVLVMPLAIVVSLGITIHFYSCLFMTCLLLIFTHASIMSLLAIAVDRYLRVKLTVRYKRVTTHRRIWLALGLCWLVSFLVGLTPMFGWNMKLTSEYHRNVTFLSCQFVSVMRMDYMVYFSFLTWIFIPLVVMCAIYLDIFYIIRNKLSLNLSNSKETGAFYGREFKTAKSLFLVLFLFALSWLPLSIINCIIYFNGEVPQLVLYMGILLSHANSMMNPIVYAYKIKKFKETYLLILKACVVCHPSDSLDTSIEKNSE
pIC50: −log10 of the molar value.
pIC50 values for the compounds below.

Below, 5 compounds whose answers are already recorded.
* COc1ccc(-c2cn[nH]c2)c2nc(NC(=O)N3CCC(C)(O)CC3)[nH]c12 | < 6.00
* COc1ccc(C2CCOCC2)c2nc(NC(=O)c3ccc(CN4CCCC4=O)cc3)[nH]c12 | < 6.00
* COc1ccc(-c2ccncc2)c2nc(NC(=O)N3CCC4(COC4)C3)[nH]c12 | < 6.00
* COc1ccc(-c2cnn(C)c2)c2nc(NC(=O)c3ccnc(Br)c3)[nH]c12 | > 8.00
* COCCn1cc(C(=O)Nc2nc3c(-c4ccn5ccnc5c4)ccc(OC)c3[nH]2)cn1 | > 6.00

Request: pIC50 of COc1ccc(-c2cnn(C(F)F)c2)c2nc(NC(=O)N3CCC(C)(O)CC3)[nH]c12 on human A3 receptor (Homo sapiens, UniProt P0DMS8)?
Response: < 6.00

Request: pIC50 of CCCN(C)C(=O)c1ccc(C(=O)Nc2nc3c(OC)ccc(-c4ccccc4)c3[nH]2)cc1 on human A3 receptor (Homo sapiens, UniProt P0DMS8)?
Response: > 6.00

Request: pIC50 of CCNCc1ccc(C(=O)Nc2nc3c(-c4ccccc4)ccc(OC)c3[nH]2)cc1 on human A3 receptor (Homo sapiens, UniProt P0DMS8)?
Response: < 6.00

Request: pIC50 of COc1ccc(C2CCOCC2)c2nc(NC(=O)c3cccc(N=S(C)(C)=O)c3)[nH]c12 on human A3 receptor (Homo sapiens, UniProt P0DMS8)?
Response: < 6.00

Request: pIC50 of COc1ccc(-c2ccccc2)c2nc(NC(=O)c3ccc(CN)cc3)[nH]c12 on human A3 receptor (Homo sapiens, UniProt P0DMS8)?
Response: > 6.00

Request: pIC50 of COc1ccc(C2=CCOC2)c2nc(NC(=O)c3ccc(C(=O)N(C)C)cc3)[nH]c12 on human A3 receptor (Homo sapiens, UniProt P0DMS8)?
Response: > 6.00

Request: pIC50 of COc1ccc(-c2ccccc2)c2nc(NC(=O)c3ccc(CN4CCCC4=O)cc3)[nH]c12 on human A3 receptor (Homo sapiens, UniProt P0DMS8)?
Response: > 6.00

Request: pIC50 of COc1ccc(N2CCOCC2)c2nc(NC(=O)c3ccc(O)c(N)c3)[nH]c12 on human A3 receptor (Homo sapiens, UniProt P0DMS8)?
Response: < 6.00

Request: pIC50 of COc1ccc(-c2cccc3cc[nH]c23)c2nc(NC(=O)N3CCC(C)(O)CC3)[nH]c12 on human A3 receptor (Homo sapiens, UniProt P0DMS8)?
Response: < 6.00

* * *

biological target: human A2A receptor (Homo sapiens, UniProt P29274); assay: functional cAMP (HTRF) assay, recombinant HEK293 cells expressing human A2A receptor, agonist NECA
Sequence (P29274 whole entry): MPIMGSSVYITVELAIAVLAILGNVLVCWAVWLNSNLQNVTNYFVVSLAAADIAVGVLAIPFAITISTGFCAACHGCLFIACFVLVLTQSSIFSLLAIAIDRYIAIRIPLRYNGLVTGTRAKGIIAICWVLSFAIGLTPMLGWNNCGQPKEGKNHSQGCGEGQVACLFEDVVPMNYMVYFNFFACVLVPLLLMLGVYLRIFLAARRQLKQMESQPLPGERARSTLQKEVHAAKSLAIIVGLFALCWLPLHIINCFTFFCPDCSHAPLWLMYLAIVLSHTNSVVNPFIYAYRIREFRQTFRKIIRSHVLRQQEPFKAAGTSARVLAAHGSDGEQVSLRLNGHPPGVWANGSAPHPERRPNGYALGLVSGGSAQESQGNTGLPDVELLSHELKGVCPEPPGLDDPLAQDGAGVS
pIC50: −log10 of the molar value.
pIC50 values for the molecules below.

Request: # lookup: pIC50 of COc1ccc(-c2ccccc2)c2nc(NC(=O)c3ccc(Br)nc3)[nH]c12
Response: > 8.00

* * *

biological target: human A3 receptor (Homo sapiens); assay: functional cAMP (HTRF) assay, recombinant CHO cells expressing human A3 receptor, forskolin, agonist IB-MECA
quantity_measured: IC50

Below, 3 molecules whose answers are already recorded.
- COc1ccc(-c2ccccc2)c2nc(NC(=O)c3ccnc(Br)c3)[nH]c12: < 10 nM
- COc1ccc(-c2ccc3[nH]ccc3c2)c2nc(NC(=O)N3CCC(C)(O)CC3)[nH]c12: > 1000 nM
- COc1ccc(C2CCOCC2)c2nc(NC(=O)c3ccc(CN(C)C)cc3)[nH]c12: > 1000 nM

Request: IC50 of COc1ccc(-c2cccc3[nH]ncc23)c2nc(NC(=O)N3CCC(C)(O)CC3)[nH]c12 on human A3 receptor (Homo sapiens)?
Response: > 1000 nM

* * *

Target: human A1 receptor (Homo sapiens)
Sequence (P30542 whole entry): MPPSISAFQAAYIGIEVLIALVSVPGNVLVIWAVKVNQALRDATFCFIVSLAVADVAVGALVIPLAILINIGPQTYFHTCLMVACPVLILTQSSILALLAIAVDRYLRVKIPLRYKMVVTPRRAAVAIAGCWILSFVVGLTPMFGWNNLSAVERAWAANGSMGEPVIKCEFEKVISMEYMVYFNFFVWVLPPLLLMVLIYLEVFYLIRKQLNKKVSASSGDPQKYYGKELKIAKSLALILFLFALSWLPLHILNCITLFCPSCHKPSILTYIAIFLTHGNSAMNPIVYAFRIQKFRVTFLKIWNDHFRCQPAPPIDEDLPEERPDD
Test: functional cAMP (HTRF) assay, recombinant CHO cells expressing human A1 receptor, forskolin, agonist CPA
Description: The functional activities of human A2A, A2B, A1 and A3 receptors were determined by quantification of cAMP, being the second messenger for adenosine receptors. […] Cells were seeded into 384-well plates, forskolin, test compounds and agonists (CPA for A1- and IB-MECA for A3-receptor) were added. After 30 min incubation, HTRF reagents (cAMP dynamic 2, Cis Bio) were added and the cellular cAMP levels were determined using the ENVISION (Perkin Elmer) plate reader. […]
pIC50: −log10 of the molar value.
quantity_measured: pIC50

Below, 3 compounds whose answers are already recorded.
* COc1ccc(-c2cnn(C)c2)c2nc(NC(=O)c3ccc(CN4CCN(C)CC4)cc3)[nH]c12 | < 6.00
* COCCC1CCN(C(=O)Nc2nc3c(-c4cnn(C)c4)ccc(OC)c3[nH]2)C1 (centres unmarked) | < 6.00
* COc1ccc(-c2ccccc2)c2nc(NC(=O)c3cncs3)[nH]c12 | > 6.00

Request: pIC50 of COc1ccc(-c2ccc(F)cc2)c2nc(NC(=O)c3ccc(N4C(=O)CCC4=O)cc3)[nH]c12 on human A1 receptor (Homo sapiens)?
Response: > 6.00

Request: pIC50 of COc1ccc(-c2cnn(C)c2)c2nc(NC(=O)c3ccc(Cn4ccnc4)cc3)[nH]c12 on human A1 receptor (Homo sapiens)?
Response: < 6.00

Request: pIC50 of COc1ccc(-c2cccc(F)c2)c2[nH]c(NC(=O)c3c[nH]cn3)nc12 on human A1 receptor (Homo sapiens)?
Response: > 6.00

Request: pIC50 of COc1ccc(-c2cnn(C)c2)c2nc(NC(=O)c3ccc4c(c3)CCO4)[nH]c12 on human A1 receptor (Homo sapiens)?
Response: > 6.00

Request: pIC50 of COc1ccc(C2CCOCC2)c2nc(NC(=O)c3ccc4c(c3)CCO4)[nH]c12 on human A1 receptor (Homo sapiens)?
Response: < 6.00

* * *

molecular target: human A3 receptor (Homo sapiens, UniProt P0DMS8); assay: functional cAMP (HTRF) assay, recombinant CHO cells expressing human A3 receptor, forskolin, agonist IB-MECA
quantity_measured: IC50

Below, 3 molecules whose answers are already recorded.
* COc1ccc(-c2cnn(C)c2)c2nc(NC(=O)c3ccnc(N4CCC5(CCOC5)C4)c3)[nH]c12 (stereo not shown) | < 1000 nM
* COc1ccc(-c2ccccc2)c2nc(NC(=O)c3ccc(Cn4ccnc4)cc3)[nH]c12 | < 100 nM
* COc1ccc(-c2cnn(C3CCN(C(=O)OC(C)(C)C)CC3)c2)c2[nH]c(NC(=O)N3CCC(C)(O)CC3)nc12 | > 1000 nM

Switching to the query record.
Request: # lookup: IC50 of COc1ccc(-c2cnn(C)c2)c2nc(NC(=O)c3cnc(C)s3)[nH]c12
Response: < 10 nM

* * *

target: human A3 receptor (Homo sapiens); test: functional cAMP (HTRF) assay, recombinant CHO cells expressing human A3 receptor, forskolin, agonist IB-MECA
IC50 values for the compounds below.

Below, 6 compounds whose answers are already recorded.
• COCCn1cc(C(=O)Nc2nc3c(-c4ccc5[nH]nc(C)c5c4)ccc(OC)c3[nH]2)cn1 = < 1000 nM
• COc1ccc(-c2cnn(C)c2)c2nc(NC(=O)c3ccc(C(=O)N(C)C)cc3)[nH]c12 = > 1000 nM
• COc1ccc(-c2cnn(C)c2)c2nc(NC(=O)c3ccnc(N4CC[C@@](C)(O)C4)c3)[nH]c12 = < 1000 nM
• COc1ccc(-c2ccccc2)c2[nH]c(NC(=O)c3ccc(C(=O)N(C)CCN(C)C)cc3)nc12 = < 1000 nM
• COc1ccc(-c2ccccc2)c2nc(NC(=O)N3CCC(F)(F)CC3)[nH]c12 = > 1000 nM
• COc1ccc(-c2cccc(F)c2)c2nc(NC(=O)c3ccc(C(=O)N(C)C)cc3)[nH]c12 = < 1000 nM

Request: # lookup: IC50 of COc1ccc(-c2cnn(C)c2)c2nc(NC(=O)c3ccc4ocnc4c3)[nH]c12
Response: < 1000 nM

Request: # lookup: IC50 of CCCNC(=O)c1ccc(C(=O)Nc2nc3c(OC)ccc(-c4ccccc4)c3[nH]2)cc1
Response: < 1000 nM

Request: # lookup: IC50 of COc1ccc(-c2cnn(C)c2)c2nc(NC(=O)N3CC[C@@]4(CCCOC4)C3)[nH]c12
Response: > 1000 nM

Request: # lookup: IC50 of COc1ccc(C2=CCOCC2)c2nc(NC(=O)C3CC3)[nH]c12
Response: < 1000 nM

* * *

target: A2B receptors (Homo sapiens, UniProt P29275); test: functional cAMP (HTRF) assay, recombinant HEK293 cells expressing human A2B receptor, agonist NECA
Sequence (P29275 whole entry): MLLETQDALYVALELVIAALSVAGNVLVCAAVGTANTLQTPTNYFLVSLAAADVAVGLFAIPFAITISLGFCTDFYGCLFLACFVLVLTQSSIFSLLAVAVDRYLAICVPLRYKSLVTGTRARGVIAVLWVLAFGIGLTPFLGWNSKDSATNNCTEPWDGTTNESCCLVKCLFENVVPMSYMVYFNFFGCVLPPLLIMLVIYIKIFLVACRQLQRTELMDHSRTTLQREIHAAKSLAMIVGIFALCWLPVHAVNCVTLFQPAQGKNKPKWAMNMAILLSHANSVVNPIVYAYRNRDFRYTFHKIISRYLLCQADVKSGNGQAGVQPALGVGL
pIC50: −log10 of the molar value.
quantity_measured: pIC50

* COc1ccc(-c2ccncc2)c2nc(NC(=O)c3ccc(CN(C)C)cc3)[nH]c12 | > 6.00
* COc1ccc(-c2cccc(F)c2)c2nc(NC(=O)N3CCC(C)(O)CC3)[nH]c12 | > 7.00
* COc1ccc(N2CCOCC2)c2nc(NC(=O)c3ccc(Cn4ccnc4)cc3)[nH]c12 | > 6.00
* COCCn1cc(C(=O)Nc2nc3c(-c4ccc5[nH]nc(C)c5c4)ccc(OC)c3[nH]2)cn1 | > 7.00

Request: # lookup: pIC50 of COc1ccc(N2CCCOCC2)c2nc(NC(=O)c3ccc(C(=O)N(C)C)cc3)[nH]c12
Response: < 6.00

Request: # lookup: pIC50 of COc1ccc(N2CCOCC2)c2nc(NC(=O)c3ccc(F)cc3)[nH]c12
Response: > 6.00

Request: # lookup: pIC50 of COc1ccc(-c2ccccc2)c2nc(NC(=O)c3ccnc(N4CCOCC4)c3)[nH]c12
Response: > 6.00

Request: # lookup: pIC50 of COc1ccc(-c2cnn(C)c2)c2nc(NC(=O)c3ccon3)[nH]c12
Response: > 6.00
